B1: library; numbered along this chain (parent)
chain: MEVVDPQQLGMFTEGELMSVGMDTFIHRIDSTEVIYQPRRKRAKLIGKYLMGDLLGEGSYGKVKEVLDSETLCRRAVKILKKKKLRRIPNGEANVKKEIQLLRRLRHKNVIQLVDVLYNEEKQKMYMVMEYCVCGMQEMLDSVPEKRFPVCQAHGYFCQLIDGLEYLHSQGIVHKDIKPGNLLLTTGGTLKISDLGVAEALHPFAADDTCRTSQGSPAFQPPEIANGLDTFSGFKVDIWSAGVTLYNITTGLYPFEGDNIYKLFENIGKGSYAIPGDCGPPLSDLLKGMLEYEPAKRFSIRQIRQHSWFRKKHPPAEAPVPIPPSPDTKDRWRSMTVVPYLEDLHGADEDEDLFDIEDDIIYTQDFTVPGQVPEEEASHNGQRRGLPKAVCMNGTEAAQLSTKSRAEGRAPNPARKACSASSKIRRLSACKQQ

# Variants of: B1
# Experiment description: STK11 functional score (HeLa growth suppression), rescaled enrichment; synonymous median = 1, nonsense median = 0 (normalised score)
# Assay conditions: with HeLa; variant type: missense
Parameter threshold = 1. Response is met when STK11 functional score meets or exceeds it, else not met.

Please review the entries below; each comes with its answer.
Alteration	Group
G91P	met
R331S	met
Y362I	met

IN: Assess whether reported STK11 functional score for `F309I` sits at 1 or higher.
OUT: met

IN: Quick check: does `Y156F` have STK11 functional score greater than or equal to 1?
OUT: met

IN: Assess whether reported STK11 functional score for `Y131I` sits at 1 or higher.
OUT: met

IN: Is it the case that `I361A` has STK11 functional score reaching or exceeding 1?
OUT: met

IN: Quick check, STK11 functional score >= 1? `P149E`
OUT: met

IN: Does the variant `D23H` have recorded STK11 functional score that is 1 or more?
OUT: met

IN: # bool: STK11 functional score of `F219K` >= 1
OUT: not met

IN: Does STK11 functional score meet or surpass 1 for `P387Q` ?
OUT: met
